Reported Growth Percent SK-MEL-28 values are given for each entry in this list.
tested on: SK-MEL-28; experiment: NCI one-dose screening, melanoma SK-MEL-28; assay type: cell-based, human; conditions: 10 μM

>  <smiles.record>
O=C1c2ccccc2C(=O)c2c1cc(Cl)c1nsnc21

>  <Growth Percent SK-MEL-28, %>
131.75

$$$$
>  <smiles.record>
Cc1ccc(Sc2cc3c(c4nsnc24)C(=O)c2ccccc2C3=O)c(C)c1

>  <Growth Percent SK-MEL-28, %>
118.64

$$$$
>  <smiles.record>
O=C1c2ccccc2C(=O)c2c1ccc1nsnc21

>  <Growth Percent SK-MEL-28, %>
15.47

$$$$
>  <smiles.record>
CSc1ccc(Sc2cc3c(c4nsnc24)C(=O)c2ccccc2C3=O)cc1

>  <Growth Percent SK-MEL-28, %>
119.66

$$$$
>  <smiles.record>
COc1cccc(Sc2cc3c(c4nsnc24)C(=O)c2ccccc2C3=O)c1

>  <Growth Percent SK-MEL-28, %>
101.77

$$$$
>  <smiles.record>
O=C1c2ccccc2C(=O)c2c1cc(Nc1ccc(Cl)cc1)c1nsnc21

>  <Growth Percent SK-MEL-28, %>
77.13

$$$$
>  <smiles.record>
O=C1c2ccccc2C(=O)c2c1cc(Sc1cccc(Cl)c1)c1nsnc21

>  <Growth Percent SK-MEL-28, %>
24.96

$$$$
>  <smiles.record>
O=C1c2ccccc2C(=O)c2c1cc(Nc1ccc(Cl)cc1F)c1nsnc21

>  <Growth Percent SK-MEL-28, %>
87.69

$$$$
>  <smiles.record>
O=C1c2ccccc2C(=O)c2c1cc(N1CCSCC1)c1nsnc21

>  <Growth Percent SK-MEL-28, %>
90.60

$$$$
>  <smiles.record>
Cc1cccc(C)c1Sc1cc2c(c3nsnc13)C(=O)c1ccccc1C2=O

>  <Growth Percent SK-MEL-28, %>
89.33

$$$$

====

tested on: SNB-19; test: NCI one-dose screening, CNS cancer SNB-19; type: cell-based, human; conditions: 10 μM
measurement.type: Growth Percent SNB-19 (%)

>  <smiles.record>
O=C1c2ccccc2C(=O)c2c1cc(Sc1ccccn1)c1nsnc21

>  <result>
103.09

$$$$
>  <smiles.record>
CCOc1cccc(Sc2cc3c(c4nsnc24)C(=O)c2ccccc2C3=O)c1

>  <result>
103.22

$$$$
>  <smiles.record>
O=C1c2ccccc2C(=O)c2c1ccc1nsnc21

>  <result>
78.98

$$$$
>  <smiles.record>
O=C1c2ccccc2C(=O)c2c1cc(Cl)c1nsnc21

>  <result>
105.75

$$$$
>  <smiles.record>
Cc1ccccc1Nc1cc2c(c3nsnc13)C(=O)c1ccccc1C2=O

>  <result>
61.89

$$$$
>  <smiles.record>
O=C1c2ccccc2C(=O)c2c1cc(SCc1ccc(Cl)cc1)c1nsnc21

>  <result>
104.30

$$$$
>  <smiles.record>
O=C1c2ccccc2C(=O)c2c1cc(Nc1ccc(Cl)cc1)c1nsnc21

>  <result>
87.03

$$$$
>  <smiles.record>
O=C1c2ccccc2C(=O)c2c1cc(Sc1ccccc1)c1nsnc21

>  <result>
108.79

$$$$
>  <smiles.record>
COc1cccc(Sc2cc3c(c4nsnc24)C(=O)c2ccccc2C3=O)c1

>  <result>
105.92

$$$$
>  <smiles.record>
Cc1ccc(Sc2cc3c(c4nsnc24)C(=O)c2ccccc2C3=O)c(C)c1

>  <result>
102.33

$$$$
>  <smiles.record>
O=C1c2ccccc2C(=O)c2c1cc(Sc1ccc(Cl)cc1)c1nsnc21

>  <result>
105.18

$$$$
>  <smiles.record>
COc1ccc(Sc2cc3c(c4nsnc24)C(=O)c2ccccc2C3=O)cc1

>  <result>
113.97

$$$$
